# System: Staphylococcus epidermidis
# experiment description: Minimum inhibitory concentration against methicillin-sensitive Staphylococcus epidermidis in the presence of 30% bovine serum
# Assay type: functional

{"columns": ["compound", "MIC"],
 "data": [
  ["CN[C@H]1C(=O)N[C@@H]2Cc3ccc(cc3)Oc3cc4cc(c3O[C@@H]3OC(C(=O)O)C(O)[C@H](O)C3NCc3ccc5ccccc5c3)Oc3ccc(cc3Cl)[C@@H](O)C3NC(=O)[C@H](NC(=O)[C@@H]4NC(=O)[C@@H](NC2=O)c2cc(cc(O)c2Cl)Oc2cc1ccc2O)c1ccc(O)c(c1)-c1c(O[C@H]2O[C@H](CO)[C@@H](O)[C@H](O)[C@@H]2O)cc(O)cc1[C@@H](C(=O)O)NC3=O (some centres undefined)", "2 µg/mL"],
  ["CCCCCCOc1ccc(CNC2[C@H](Oc3c4cc5cc3Oc3ccc(cc3Cl)[C@@H](O)C3NC(=O)[C@H](NC(=O)[C@@H]5NC(=O)[C@H]5NC(=O)[C@@H](Cc6ccc(cc6)O4)NC(=O)[C@H](NC)c4ccc(O)c(c4)Oc4cc(O)c(Cl)c5c4)c4ccc(O)c(c4)-c4c(O[C@H]5O[C@H](CO)[C@@H](O)[C@H](O)[C@@H]5O)cc(O)cc4[C@@H](C(=O)NCCCN(C)C)NC3=O)OC(C(=O)NCCCN(C)C)C(O)[C@@H]2O)cc1 (some centres undefined)", "< 0.125 µg/mL"],
  ["CN(C)CCCNC(=O)C1O[C@@H](Oc2c3cc4cc2Oc2ccc(cc2Cl)[C@@H](O)C2NC(=O)[C@H](NC(=O)[C@@H]4NC(=O)[C@H]4NC(=O)[C@@H](Cc5ccc(cc5)O3)NC(=O)[C@H](N(C)Cc3ccc(-c5ccccc5)cc3)c3ccc(O)c(c3)Oc3cc(O)c(Cl)c4c3)c3ccc(O)c(c3)-c3c(O[C@H]4O[C@H](CO)[C@@H](O)[C@H](O)[C@@H]4O)cc(O)cc3[C@@H](C(=O)NCCCN(C)C)NC2=O)C(NCc2ccc(-c3ccccc3)cc2)[C@@H](O)C1O (some centres undefined)", "0.25 µg/mL"],
  ["CN(Cc1ccc(-c2ccccc2)cc1)[C@H]1C(=O)N[C@@H]2Cc3ccc(cc3)Oc3cc4cc(c3O[C@@H]3OC(C(=O)O)C(O)[C@H](O)C3NCc3ccc(-c5ccccc5)cc3)Oc3ccc(cc3Cl)[C@@H](O)C3NC(=O)[C@H](NC(=O)[C@@H]4NC(=O)[C@@H](NC2=O)c2cc(cc(O)c2Cl)Oc2cc1ccc2O)c1ccc(O)c(c1)-c1c(O[C@H]2O[C@H](CO)[C@@H](O)[C@H](O)[C@@H]2O)cc(O)cc1[C@@H](C(=O)O)NC3=O (some centres undefined)", "0.5 µg/mL"],
  ["CCCCOc1ccc(CNC2[C@H](Oc3c4cc5cc3Oc3ccc(cc3Cl)[C@@H](O)C3NC(=O)[C@H](NC(=O)[C@@H]5NC(=O)[C@H]5NC(=O)[C@@H](Cc6ccc(cc6)O4)NC(=O)[C@H](NC)c4ccc(O)c(c4)Oc4cc(O)c(Cl)c5c4)c4ccc(O)c(c4)-c4c(O[C@H]5O[C@H](CO)[C@@H](O)[C@H](O)[C@@H]5O)cc(O)cc4[C@@H](C(=O)O)NC3=O)OC(C(=O)O)C(O)[C@@H]2O)cc1 (some centres undefined)", "1 µg/mL"],
  ["CCCCOc1ccc(CNC2[C@H](Oc3c4cc5cc3Oc3ccc(cc3Cl)[C@@H](O)C3NC(=O)[C@H](NC(=O)[C@@H]5NC(=O)[C@H]5NC(=O)[C@@H](Cc6ccc(cc6)O4)NC(=O)[C@H](N(C)Cc4ccc(OCCCC)cc4)c4ccc(O)c(c4)Oc4cc(O)c(Cl)c5c4)c4ccc(O)c(c4)-c4c(O[C@H]5O[C@H](CO)[C@@H](O)[C@H](O)[C@@H]5O)cc(O)cc4[C@@H](C(=O)NCCCN(C)C)NC3=O)OC(C(=O)NCCCN(C)C)C(O)[C@@H]2O)cc1 (some centres undefined)", "< 0.125 µg/mL"],
  ["CCCCOc1ccc(CNC2[C@H](Oc3c4cc5cc3Oc3ccc(cc3Cl)[C@@H](O)C3NC(=O)[C@H](NC(=O)[C@@H]5NC(=O)[C@H]5NC(=O)[C@@H](Cc6ccc(cc6)O4)NC(=O)[C@H](N(C)Cc4ccc(OCCCC)cc4)c4ccc(O)c(c4)Oc4cc(O)c(Cl)c5c4)c4ccc(O)c(c4)-c4c(O[C@H]5O[C@H](CO)[C@@H](O)[C@H](O)[C@@H]5O)cc(O)cc4[C@@H](C(=O)O)NC3=O)OC(C(=O)O)C(O)[C@@H]2O)cc1 (some centres undefined)", "2 µg/mL"],
  ["CN(C)CCCNC(=O)C1O[C@@H](Oc2c3cc4cc2Oc2ccc(cc2Cl)[C@@H](O)C2NC(=O)[C@H](NC(=O)[C@@H]4NC(=O)[C@H]4NC(=O)[C@@H](Cc5ccc(cc5)O3)NC(=O)[C@H](N(C)Cc3ccc(C(=O)Oc5ccccc5)cc3)c3ccc(O)c(c3)Oc3cc(O)c(Cl)c4c3)c3ccc(O)c(c3)-c3c(O[C@H]4O[C@H](CO)[C@@H](O)[C@H](O)[C@@H]4O)cc(O)cc3[C@@H](C(=O)NCCCN(C)C)NC2=O)C(NCc2ccc(C(=O)Oc3ccccc3)cc2)[C@@H](O)C1O (some centres undefined)", "0.25 µg/mL"],
  ["CCCCc1ccc(CNC2[C@H](Oc3c4cc5cc3Oc3ccc(cc3Cl)[C@@H](O)C3NC(=O)[C@H](NC(=O)[C@@H]5NC(=O)[C@H]5NC(=O)[C@@H](Cc6ccc(cc6)O4)NC(=O)[C@H](NC)c4ccc(O)c(c4)Oc4cc(O)c(Cl)c5c4)c4ccc(O)c(c4)-c4c(O[C@H]5O[C@H](CO)[C@@H](O)[C@H](O)[C@@H]5O)cc(O)cc4[C@@H](C(=O)O)NC3=O)OC(C(=O)O)C(O)[C@@H]2O)cc1 (some centres undefined)", "0.25 µg/mL"]
]}
